- ASSAY EXPLANATION: physchem
- Type: physicochemical
- APPLIED CONDITIONS: 37 °C, pH 6.5, fassif, kinetic from dmso stock
MEASUREMENT NAME: solubility

Record request: solubility value, item Cc1cc(OC[P@@]2(=O)OCC[C@@H](c3cccc(Cl)c3)O2)cc(C)c1Cc1ccc(O)c(C(C)C)c1 [Compound 1]
180 to 210 µg/mL
